Reported Residual rate values follow for various compounds
TEST NAME: Evaluation of conversion rate to active form in buffer solution (Experimental Example 1)
Type: physicochemical
PARTICULARS: pH7.4, 3 hr, 37° C., 25 umol/L in buffer solution
Counter-ions that a name gives are not always drawn.
OBSERVATION TYPE: Residual rate (%)

[[record]]
compound = "CCNC(=O)Oc1cc(O)c2c(=O)cc(-c3ccccc3Cl)oc2c1[C@H]1CCN(C)C[C@H]1O [Comparative Example 1, reference compound]"
val = 0.7

[[record]]
compound = "CN1CC[C@H](c2c(OC(=O)N(CCC(F)(F)F)CC3CCCCN3)cc(O)c3c(=O)cc(-c4ccccc4Cl)oc23)[C@H](O)C1 (stereo partly drawn)"
val = 0.0

[[record]]
compound = "CCN(CC1CCCCN1)C(=O)Oc1cc(O)c2c(=O)cc(-c3ccccc3Cl)oc2c1[C@H]1CCN(C)C[C@H]1O (stereo partly drawn) [Example 7, dihydrochloride]"
val = 19.0

[[record]]
compound = "COCCN(CC1CCCCN1)C(=O)Oc1cc(O)c2c(=O)cc(-c3ccccc3Cl)oc2c1[C@H]1CCN(C)C[C@H]1O (stereo partly drawn)"
val = 0.0

[[record]]
compound = "CN1CC[C@H](c2c(OC(=O)N(C)C[C@@H]3CCCCN3)cc(O)c3c(=O)cc(-c4ccccc4Cl)oc23)[C@H](O)C1"
val = 0.0

[[record]]
compound = "CN1CC[C@H](c2c(OC(=O)N(Cc3ccccc3)CC3CCCCN3)cc(O)c3c(=O)cc(-c4ccccc4Cl)oc23)[C@H](O)C1 (stereo partly drawn)"
val = 2.9

